Recorded IC50 values (Avi-tagged FL MALT-1 (Homo sapiens, UniProt Q9UDY8)) are given below.

Take a look at these entries with their results.
CC(C)c1nsc(C(=O)Nc2ccnc(C(F)(F)F)c2)c1C1CC1    1000 to 2500 nM
Cc1cc(NC(=O)c2snc(-c3cccn4nccc34)c2C2CC2)ccn1    ≤ 400 nM
CCc1c(-c2ccccc2)nsc1C(=O)Nc1cnc(-n2nccn2)c(Cl)c1    ≤ 400 nM
Cn1ncc2cccc(-c3nsc(C(=O)Nc4cnc(-n5nccn5)c(C#N)c4)c3C3CC3)c21    ≤ 400 nM
O=C(Nc1cnc(-n2nccn2)c(Cl)c1)c1snc(-c2cnc3ccccn23)c1C(F)(F)F    ≤ 400 nM

The molecule listed as "O=C(Nc1cncc(F)c1)c1snc(-c2ccccc2)c1C1CC1" shows IC50 equal to > 2500 nM

Notebook: "Cn1cc2c(-c3nsc(C(=O)Nc4cnc(-n5nccn5)c(C#N)c4)c3C3CC3)cccc2n1" , IC50 read as ≤ 400 nM

Record "COc1nccc2c(-c3nsc(C(=O)Nc4cnc(-n5nccn5)c(Cl)c4)c3C(F)(F)F)cccc12" . Reported IC50: ≤ 400 nM

The value of IC50 measured for the molecule "O=C(Nc1ccnc(C(F)(F)F)c1)c1snc(-c2cccc(C(F)(F)F)c2)c1C1CC1" turned out to be ≤ 400 nM

Reported IC50 for "O=C(Nc1ccnc(C(F)(F)F)c1)c1snc(-c2cccc3[nH]ncc23)c1C1CC1" was ≤ 400 nM

// sample "CC(C)c1c(-c2ccccc2)nsc1C(=O)Nc1cnc(-n2nccn2)c(Cl)c1" , its IC50 was ≤ 400 nM

The recorded IC50 for "CN(CCO)C(=O)c1ccc(NC(=O)c2snc(-c3ccccc3)c2C2CC2)cc1Cl" is ≤ 400 nM

Sure, the documented IC50 for "Cn1nc2cccc(-c3nsc(C(=O)Nc4cnc(-n5nccn5)c(C#N)c4)c3C3CC3)c2n1" is ≤ 400 nM

Given item "O=C(Nc1cnc(-n2nccn2)c(Cl)c1)c1snc(-c2ccccc2)c1C1CC1" , the value recorded as its IC50 is ≤ 400 nM

The molecule listed as "Cn1nnc2cccc(-c3nsc(C(=O)Nc4cnc(-n5nccn5)c(C#N)c4)c3C3CC3)c21" shows IC50 equal to ≤ 400 nM

IC50 reading for "CC(=O)Nc1ccc(-c2nsc(C(=O)Nc3ccnc(C(F)(F)F)c3)c2C2CC2)cc1" : 400 to 1000 nM

According to the records, this molecule "N#Cc1cc(NC(=O)c2snc(-c3cccc4c(=O)[nH]ccc34)c2C2CC2)cnc1-n1nccn1" displays IC50 of ≤ 400 nM

Short answer for "CN(C)C(=O)c1ccc(NC(=O)c2snc(-c3ccccc3)c2C2CC2)cc1Cl" : IC50 was ≤ 400 nM

// recorded IC50 for "CN1CC=C(c2nsc(C(=O)Nc3cnc(-n4nccn4)c(C#N)c3)c2C2CC2)CC1" : > 2500 nM

For record "O=C(Nc1cnc(-n2nccn2)c(Cl)c1)c1cc(-c2ccccc2)ns1" the listed IC50 is 1000 to 2500 nM

Record "O=C(Nc1ccnc(C(F)(F)F)c1)c1snc(-c2ccccc2C(F)(F)F)c1C1CC1" , field IC50: ≤ 400 nM

Summary for this molecule, "O=C(Nc1ccnc(C(F)(F)F)c1)c1snc(-c2cccc3scnc23)c1C1CC1" : IC50 is ≤ 400 nM

* * *

Listed next: entries and their corresponding pIC50.
Sequence of the target: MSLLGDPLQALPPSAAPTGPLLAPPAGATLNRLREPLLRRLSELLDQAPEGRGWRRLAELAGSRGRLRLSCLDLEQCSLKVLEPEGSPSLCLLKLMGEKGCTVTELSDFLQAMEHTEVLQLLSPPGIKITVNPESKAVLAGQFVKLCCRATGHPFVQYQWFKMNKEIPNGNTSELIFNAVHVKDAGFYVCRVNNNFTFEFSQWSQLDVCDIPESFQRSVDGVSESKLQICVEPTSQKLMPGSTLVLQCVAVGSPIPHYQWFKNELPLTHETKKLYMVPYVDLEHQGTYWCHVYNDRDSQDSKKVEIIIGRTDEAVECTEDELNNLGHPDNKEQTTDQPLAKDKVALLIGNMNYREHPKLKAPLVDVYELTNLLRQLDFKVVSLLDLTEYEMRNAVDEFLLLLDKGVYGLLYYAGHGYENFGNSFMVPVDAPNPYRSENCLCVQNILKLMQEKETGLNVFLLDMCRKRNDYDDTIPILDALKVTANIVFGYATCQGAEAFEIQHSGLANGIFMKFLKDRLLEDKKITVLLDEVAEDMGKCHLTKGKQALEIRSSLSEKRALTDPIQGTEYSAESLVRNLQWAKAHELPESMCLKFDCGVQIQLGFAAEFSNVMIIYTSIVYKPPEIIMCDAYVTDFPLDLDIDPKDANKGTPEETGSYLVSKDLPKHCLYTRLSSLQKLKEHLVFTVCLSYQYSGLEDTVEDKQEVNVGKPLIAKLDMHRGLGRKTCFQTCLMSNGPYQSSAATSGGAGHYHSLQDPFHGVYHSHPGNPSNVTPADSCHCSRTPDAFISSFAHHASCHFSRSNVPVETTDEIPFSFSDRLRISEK
pIC50: −log10 of the molar value.

Worked cases, pIC50 given:
O=C(Nc1ccnc(C(F)(F)F)c1)c1snc(-c2ccncc2)c1C1CC1 [I-184]    ≥ 6.40
O=C(Nc1ccc(C(=O)N2CC(O)C2)c(Cl)c1)c1snc(-c2ccccc2)c1C(F)(F)F [I-16]    ≥ 6.40
O=C(Nc1ccnc(C(F)(F)F)c1)c1snc(-c2ccccc2F)c1C1CC1 [I-147]    ≥ 6.40
CN1Cc2cc(NC(=O)c3snc(-c4ccccc4)c3C3CC3)cnc2C1=O [I-111]    < 5.60

Sure, the documented pIC50 for Cn1ccc2c(-c3nsc(C(=O)Nc4ccnc(C(F)(F)F)c4)c3C3CC3)ccnc21 [I-175] is ≥ 6.40

Noted for COc1cncc(NC(=O)c2snc(-c3ccccc3)c2C2CC2)c1 [I-44] : its pIC50 reads < 5.60

Query N#Cc1cc(NC(=O)c2snc(-c3ccccc3)c2C2CC2)cnc1-n1nccn1 [I-9] yields pIC50 of ≥ 6.40

* * *

Heads up, these compounds all have IC50 values measured for Avi-tagged FL MALT-1 (Homo sapiens, UniProt Q9UDY8).

Some solved entries appear below for comparison.
Cn1cc(-c2nsc(C(=O)Nc3cnc(-n4nccn4)c(C#N)c3)c2C(F)(F)F)cn1 [I-37]    400 to 1000 nM
O=C(Nc1ccnc(C(F)(F)F)c1)c1snc(-c2cncnc2)c1C1CC1 [I-144]    ≤ 400 nM
Cc1cc(NC(=O)c2snc(-c3ccccc3)c2C2CC2)ccn1 [I-196]    ≤ 400 nM

Kindly review the next compound as well.
// recorded IC50 for N#Cc1cc(NC(=O)c2snc(C3CCOC3)c2C2CC2)cnc1-n1nccn1 (stereo not shown) [I-115] : ≤ 400 nM

* * *

Entries and their pIC50 values follow.
- TARGET: Avi-tagged FL MALT-1 (Homo sapiens)
pIC50: −log10 of the molar value.

C=Cc1c(-c2ccccc2)nsc1C(=O)Nc1cnc(-n2nccn2)c(Cl)c1 [I-10]    ≥ 6.40
O=C(Nc1ccc(C(=O)N2CC(O)C2)c(Cl)c1)c1snc(-c2cccc3nccn23)c1C1CC1 [I-190]    ≥ 6.40
Cc1nn(C)cc1-c1nsc(C(=O)Nc2ccnc(C(F)(F)F)c2)c1C1CC1 [I-143]    ≥ 6.40
CC(C)c1nsc(C(=O)Nc2cnc(-n3nccn3)c(C#N)c2)c1C1CC1 [I-56]    ≥ 6.40

response.value for N#Cc1cc(NC(=O)c2snc(-c3ncccc3Cl)c2C2CC2)cnc1-n1nccn1 [I-28] (field: pIC50) = ≥ 6.40

The molecule listed as CN(C)c1nsc(C(=O)Nc2ccnc(C(F)(F)F)c2)c1C1CC1 [I-125] has a reported pIC50 of < 5.60

// field: pIC50; key: O=C(Nc1ccnc(C(F)(F)F)c1)c1snc(-c2ccc3cncn3c2)c1C1CC1 [I-194] ; value = ≥ 6.40

O=C(Nc1ccnc(C(F)(F)F)c1)c1snc(-c2ccc(F)cc2)c1C1CC1 [I-172] yielded pIC50 of ≥ 6.40

O=C(Nc1ccnc(C(F)(F)F)c1)c1snc(-c2cncc3ccccc23)c1C1CC1 [I-177] has a reported pIC50 of ≥ 6.40

* * *

Quick note: these are pIC50 numbers for system: Avi-tagged FL MALT-1 (Homo sapiens, UniProt Q9UDY8)
pIC50: −log10 of the molar value.

Here's what some known entries look like.
O=C(Nc1ccnc(C(F)(F)F)c1)c1snc([C@@H]2CCOC2)c1C1CC1    < 5.60
N#Cc1cc(NC(=O)c2snc(-c3ccccc3)c2C(F)(F)F)cnc1-n1nccn1    ≥ 6.40
O=C(Nc1ccnc(C(F)(F)F)c1)c1snc(-c2cccc3c(=O)[nH]ccc23)c1C1CC1    ≥ 6.40

Log: Avi-tagged FL MALT-1 (Homo sapiens, UniProt Q9UDY8), compound "Cn1cc(-c2nsc(C(=O)Nc3ccnc(C(F)(F)F)c3)c2C2CC2)cn1" , pIC50 = 5.60 to 6.00

Lab note: compound "O=C(Nc1ccnc(C(F)(F)F)c1)c1snc(-c2ccn3ncnc3c2)c1C1CC1" tested on Avi-tagged FL MALT-1 (Homo sapiens, UniProt Q9UDY8); recorded pIC50 was 6.00 to 6.40

// assay Avi-tagged FL MALT-1 (Homo sapiens, UniProt Q9UDY8), entry "COc1ncccc1-c1nsc(C(=O)Nc2ccnc(C(F)(F)F)c2)c1C1CC1" , pIC50 value = ≥ 6.40
